Data credit: PubChem BioAssay (NCI)

Assay: NCI Yeast Anticancer Drug Screen. Data for the rad14 strain (AID 159)
Conditions: S. cerevisiae rad14 strain growth inhibition; at 100.0 µM
The panel holds about 79,000 compounds, 15% with a hit somewhere; the sample as a whole holds those more often. Calls of active or inactive are those of the source. No stated cut-off is given here; in the data, active means growth inhibition above about 70%; inactive means the rest.
Classes used: active, inactive

Compound	Category label
Cc1ccc(C(C)C)c(C(=C2C=CC(=[N+](C)C)C=C2)c2c(C(C)C)ccc(C)c2O)c1O	active
COC1=C(N=[N+]=[N-])C(=O)c2ncccc2C1=O	active
CN(C)CCNC(=O)c1cccc2nc3c4ccccc4c4ccccc4c3nc12	active
O=C(CCCN1CCC2(CC1)OC(=O)N(c1ccccc1)C2=O)c1ccccc1	active
Cc1cnc(/C=N\NC(N)=S)c2cccc(N)c12	active
CCCC(=O)OC(OC(=O)CCC)c1ccc([N+](=O)[O-])o1	inactive
O=C(/C(=C/c1ccccc1)CBr)c1ccccc1	active
CC[C@]1(O)C[C@H]2CN(CCc3c([nH]c4ccccc34)[C@@](C(=O)OC)(c3cc4c(cc3OC)N(C)[C@H]3[C@@](O)(C(=O)OC)[C@H](OC(C)=O)[C@]5(CC)C=CCN6CC[C@]43[C@@H]65)C2)C1	inactive
CCC1SC(=S)N(c2ccc(Cl)cc2)C1=O (stereo not given)	active
CCOc1ccccc1N1C(=O)CC(Sc2ccccc2N)C1=O (stereo not given)	inactive
